Reported IC50 by item:
- experimental_system: Recombinant human JAK2 catalytic domain (Homo sapiens (Human), UniProt O60674)
- Sequence (O60674 808-1132): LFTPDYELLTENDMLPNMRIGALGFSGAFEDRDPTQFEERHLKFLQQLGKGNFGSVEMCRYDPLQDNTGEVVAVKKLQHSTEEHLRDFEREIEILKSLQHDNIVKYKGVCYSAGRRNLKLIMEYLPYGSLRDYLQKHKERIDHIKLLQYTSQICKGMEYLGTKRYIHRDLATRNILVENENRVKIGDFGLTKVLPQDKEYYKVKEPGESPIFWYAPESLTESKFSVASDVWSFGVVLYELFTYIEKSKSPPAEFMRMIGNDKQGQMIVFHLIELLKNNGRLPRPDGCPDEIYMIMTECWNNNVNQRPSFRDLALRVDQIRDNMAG
- experiment_notes: JAK2 inhibition assay
- Assay type: biochemical
- condition_parameters: semi-quantitative score
- Description: After 90 min at 30° C., reactions were stopped by adding of 25 μL/well of 150 mM phosphoric acid. […] Plates were washed 6 times with 300 μL per well of a 75 mM phosphoric acid solution and the bottom of the plates was sealed. 40 μL/well of Microscint-20 was added, the top of the plates was sealed and readout was performed using the Topcount (Perkin Elmer). […]

{"columns": ["molecule", "IC50"],
 "data": [
  ["O=C(Nc1nc2cccc(-c3ccc(CNc4ccccc4F)cc3)n2n1)C1CC1", "< 100 nM"],
  ["O=C(Nc1nc2cccc(-c3ccc(CC(=O)N4CC(F)(F)C4)cc3)n2n1)C1CC1", "< 100 nM"],
  ["CC(=O)NC1CCCN(C(=O)c2ccc(-c3cccc4nc(NC(=O)C5CC5)nn34)cc2)C1 (centres unmarked)", "501 to 1000 nM"],
  ["Cc1cc(COc2ccc(-c3cccc4nc(NC(=O)C5CC5)nn34)cc2)no1", "< 100 nM"],
  ["N#CC1CCN(C(=O)c2ccc(-c3cccc4nc(NC(=O)C5CC5)nn34)cc2)CC1", "101 to 500 nM"],
  ["O=C(Nc1nc2cccc(-c3ccc(C(=O)N4CCC(O)(c5ccccc5)CC4)cc3)n2n1)C1CC1", "501 to 1000 nM"],
  ["N#Cc1ccc(COC2CN(c3ccc(-c4cccc5nc(NC(=O)C6CC6)nn45)cc3)C2)cc1", "501 to 1000 nM"],
  ["O=C(Nc1nc2cccc(-c3ccc(C(=O)N4CCCN(Cc5ccccc5)CC4)cc3)n2n1)C1CC1", "101 to 500 nM"],
  ["O=C(NCc1ccc(-c2cccc3nc(NC(=O)C4CC4)nn23)cc1)C1CC1", "101 to 500 nM"],
  ["CN1CCC(NC(=O)c2ccc(-c3cccc4nc(NC(=O)C5CC5)nn34)cc2)CC1", "> 1000 nM"],
  ["O=C(Nc1nc2cccc(-c3ccc(CNC4CC4)cc3)n2n1)C1CC1", "101 to 500 nM"]
]}
